assay_method_text: SAD study: single-dose nacubactam pharmacokinetics (plasma/urine, LC-MS/MS, noncompartmental)
Assay type: in vivo
reported_conditions: human, plasma, iv, single i.v. dose 500 mg, n = 6, mean (SD)
reported_property: AUC(0-t) (ng·h/mL)

NCCONC(=O)[C@@H]1CC[C@@H]2CN1C(=O)N2OS(=O)(=O)O [Nacubactam] | 53600

---

assay_method_text: MAD study: nacubactam pharmacokinetics, multiple doses and single dose alone or with meropenem
Assay type: in vivo, human
reported_conditions: human, plasma, intravenous, 2000 mg, MAD part 1, 2,000 mg q8h for 7 days, day 7, n = 6, geometric mean (%CV); read-out: AUC0–8h
reported_property: AUC(0-t) (µg·h/mL)

NCCONC(=O)[C@@H]1CC[C@@H]2CN1C(=O)N2OS(=O)(=O)O | 279

---

assay_method_text: SAD study: single-dose nacubactam pharmacokinetics (plasma/urine, LC-MS/MS, noncompartmental)
Assay type: in vivo
reported_conditions: human, plasma, iv, 2000 mg, single i.v. dose 2,000 mg, n = 6, mean (SD), read-out: Vss
reported_property: Vd (L)

NCCONC(=O)[C@@H]1CC[C@@H]2CN1C(=O)N2OS(=O)(=O)O | 20.6

---

assay_method_text: MAD study: nacubactam pharmacokinetics, multiple doses and single dose alone or with meropenem
Type: in vivo, human
reported_conditions: human, plasma, intravenous, 1000 mg, MAD part 1, 1,000 mg q8h for 7 days, day 7, n = 6, geometric mean (%CV); read-out: CL (converted)
reported_property: clearance

NCCONC(=O)[C@@H]1CC[C@@H]2CN1C(=O)N2OS(=O)(=O)O [Nacubactam] | 142 mL/min

---

assay_method_text: SAD study: single-dose nacubactam pharmacokinetics (plasma/urine, LC-MS/MS, noncompartmental)
Assay type: in vivo
reported_conditions: human, plasma, iv, 2000 mg, single i.v. dose 2,000 mg, n = 6, mean (SD)
reported_property: AUC(0-inf)

NCCONC(=O)[C@@H]1CC[C@@H]2CN1C(=O)N2OS(=O)(=O)O | 229 µg·h/mL

---

assay_method_text: SAD study: single-dose nacubactam pharmacokinetics (plasma/urine, LC-MS/MS, noncompartmental)
Type: in vivo
reported_conditions: human, plasma, iv, 1000 mg, single i.v. dose 1,000 mg, n = 6, mean (SD), read-out: t1/2 (converted)
Description: Study treatments were administered as 30-min (SAD study) or 90-min (MAD study) i.v. infusions, the latter to investigate the pharmacokinetics using a longer infusion time, which is commonly used to increase the time above the MIC of β-lactams ([15]). The choice of a 90-min infusion time for the MAD study was dictated by the stability and toxicology data available at the time the study was being designed. […]
reported_property: half-life (h)

NCCONC(=O)[C@@H]1CC[C@@H]2CN1C(=O)N2OS(=O)(=O)O [Nacubactam] | 2.05

---

assay_method_text: MAD study: nacubactam pharmacokinetics, multiple doses and single dose alone or with meropenem
Assay type: in vivo, human
reported_conditions: human, plasma, intravenous, 4000 mg, MAD part 2, 4,000 mg q8h for 7 days, day 9, n = 6, geometric mean (%CV); read-out: AUC0–8h
reported_property: AUC(0-t) (µg·h/mL)

NCCONC(=O)[C@@H]1CC[C@@H]2CN1C(=O)N2OS(=O)(=O)O | 496

---

assay_method_text: MAD study: nacubactam pharmacokinetics, multiple doses and single dose alone or with meropenem
Assay type: in vivo, human
reported_conditions: human, plasma, intravenous, 2000 mg
reported_property: Cmax (µg/mL)

NCCONC(=O)[C@@H]1CC[C@@H]2CN1C(=O)N2OS(=O)(=O)O | 66

This collection of values is drawn from paper PMC7179653.
